target: UniProtKB Q9GZT4; test: Inhibition of human serine racemase at 2 mM
Where a SMILES comes first, the peptide text is derived from it. [ ]: non-standard residue; d: D form. The star is where a group is joined. Phe(4-CN) = N#Cc1ccc(C[C@H](N)C(=O)O)cc1; Hydrocinnamoyl = O=C(CCc1ccccc1)*; hPhe = N[C@@H](CCc1ccccc1)C(=O)O; 2Thi = N[C@@H](Cc1cccs1)C(=O)O; Orn = NCCC[C@H](N)C(=O)O
Kindly supply the reported inhibition values for the records listed here.
Report the value in % with no unit label.

Query: Looking for the measured inhibition of CC(C)C[C@H](NC(=O)[C@H](Cc1c[nH]cn1)NC(=O)CCc1ccccc1)C(N)=O (Hydrocinnamoyl-His-Leu-NH2) , can you help?
Reply: 57

Query: Looking for the measured inhibition of NC(=O)[C@H](Cc1cccc(C(=O)c2ccccc2)c1)NC(=O)[C@H](Cc1ccccc1)NC(=O)COCC(=O)O , can you help?
Reply: 4

Query: Looking for the measured inhibition of CCC(C)C[C@H](NC(=O)CCc1ccccc1)C(=O)N[C@@H](Cc1c[nH]cn1)C(N)=O (some centres undefined) , can you help?
Reply: 54

Query: Looking for the measured inhibition of CC[C@@H](C)[C@H](NC(=O)[C@H](CO)NC(=O)/C=C/c1cccnc1)C(N)=O , can you help?
Reply: 10

Query: Looking for the measured inhibition of CC[C@@H](C)[C@H](NC(=O)[C@H](Cc1c[nH]cn1)NC(=O)CCc1ccccc1)C(=O)NCCOCCOCNC(=O)CCC(N)=O , can you help?
Reply: 0

Query: Looking for the measured inhibition of CC[C@@H](C)[C@H](NC(=O)[C@H](Cc1c[nH]cn1)NC(=O)CCc1ccccc1)C(N)=O , can you help?
Reply: 74

Query: Looking for the measured inhibition of NC(=O)[C@H](Cc1cccs1)NC(=O)[C@H](Cc1c[nH]cn1)NC(=O)CCc1ccccc1 (Hydrocinnamoyl-His-[2Thi]-NH2) , can you help?
Reply: 68

Query: Looking for the measured inhibition of N#Cc1ccc(C[C@H](NC(=O)c2ccc(-c3ccccc3)cc2)C(=O)NC2(C(N)=O)CCC(O)CC2)cc1 (some centres undefined) , can you help?
Reply: 0

Query: Looking for the measured inhibition of NC(=O)[C@H](CCc1ccccc1)NC(=O)[C@H](Cc1c[nH]cn1)NC(=O)CCc1ccccc1 (Hydrocinnamoyl-His-[hPhe]-NH2) , can you help?
Reply: 70

Query: Looking for the measured inhibition of NC(=O)C[C@H](NC(=O)CCc1ccccc1)C(=O)N[C@@H](Cc1c[nH]cn1)C(N)=O (Hydrocinnamoyl-Asn-His-NH2) , can you help?
Reply: 42

Query: Looking for the measured inhibition of N#Cc1ccc(C[C@H](NC(=O)CCc2ccccc2)C(=O)N[C@@H](Cc2c[nH]cn2)C(N)=O)cc1 (Hydrocinnamoyl-[Phe(4-CN)]-His-NH2) , can you help?
Reply: 72

Query: Looking for the measured inhibition of NCCCC[C@H](NC(=O)[C@H](Cc1c[nH]cn1)NC(=O)CCc1ccccc1)C(N)=O (Hydrocinnamoyl-His-Lys-NH2) , can you help?
Reply: 40

Query: Looking for the measured inhibition of NCCC[C@H](NC(=O)[C@H](Cc1c[nH]cn1)NC(=O)CCc1ccccc1)C(N)=O (Hydrocinnamoyl-His-[Orn]-NH2) , can you help?
Reply: 49

Query: Looking for the measured inhibition of CSCC[C@H](NC(=O)N1C(=O)OC[C@@H]1c1ccccc1)C(=O)N[C@@H](CCC(=O)O)C(N)=O , can you help?
Reply: 8

----------
Kindly supply the reported Ki values for the records listed here.
Target sequence: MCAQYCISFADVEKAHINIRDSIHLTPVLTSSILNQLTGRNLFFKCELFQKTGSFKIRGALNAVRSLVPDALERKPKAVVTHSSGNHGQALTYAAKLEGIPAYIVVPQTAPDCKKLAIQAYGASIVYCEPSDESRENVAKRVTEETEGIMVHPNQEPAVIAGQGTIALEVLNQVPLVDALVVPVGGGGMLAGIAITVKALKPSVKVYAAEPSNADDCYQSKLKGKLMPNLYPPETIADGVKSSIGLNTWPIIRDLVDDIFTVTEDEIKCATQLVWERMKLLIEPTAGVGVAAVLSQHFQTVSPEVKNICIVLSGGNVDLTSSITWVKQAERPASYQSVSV
Where a SMILES comes first, the peptide text is derived from it. [ ]: non-standard residue; d: D form. The star is where a group is joined. Hydrocinnamoyl = O=C(CCc1ccccc1)*; hPhe = N[C@@H](CCc1ccccc1)C(=O)O

Query: Looking for the measured Ki of NC(=O)[C@H](CCc1ccccc1)NC(=O)[C@H](Cc1cnc[nH]1)NC(=O)CCc1ccccc1 (Hydrocinnamoyl-His-[hPhe]-NH2) , can you help?
Reply: 320 µM

Query: Looking for the measured Ki of CC[C@@H](C)[C@H](NC(=O)[C@H](Cc1c[nH]cn1)NC(=O)CCc1ccccc1)C(N)=O , can you help?
Reply: 610 µM
